Reference for the values: PubChem BioAssay AID2117

Answer each item with its documented inhibition.
tested on: VP16; assay: ROR modulator nuclear receptor reporter panel, late-stage follow-up, ROR modulator project, cell-based, luciferase reporter (AID 2117); conditions: ROR/LXR/VP16, at 10 µM, active compounds read high
Report only the number, with the unit % understood.

`O=S(=O)(Nc1ccc(C(O)(C(F)(F)F)C(F)(F)F)cc1)c1ccc(Cl)c2nonc12` yielded inhibition of 39

`O=S(=O)(Nc1ccc(C(O)(C(F)(F)F)C(F)(F)F)cc1)c1cccc2ccccc12` yielded inhibition of 5

`CC(C)(C)c1ccc(S(=O)(=O)Nc2ccc(C(O)(C(F)(F)F)C(F)(F)F)cc2)cc1` yielded inhibition of 10

`O=S(=O)(Nc1ccc(C(O)(C(F)(F)F)C(F)(F)F)cc1)c1cccc2cccnc12` yielded inhibition of 0

`COc1cccc(S(=O)(=O)Nc2ccc(C(O)(C(F)(F)F)C(F)(F)F)cc2)c1` yielded inhibition of 9
